Recorded pEC50 values for a group of compounds are listed next.
- study_target: full-length beta-catenin (Axin site) (Homo sapiens)
- Construct: 15 nM full-length beta-catenin, 20 nM FITC labeled peptide in buffer
- Sequence (P35222 whole entry): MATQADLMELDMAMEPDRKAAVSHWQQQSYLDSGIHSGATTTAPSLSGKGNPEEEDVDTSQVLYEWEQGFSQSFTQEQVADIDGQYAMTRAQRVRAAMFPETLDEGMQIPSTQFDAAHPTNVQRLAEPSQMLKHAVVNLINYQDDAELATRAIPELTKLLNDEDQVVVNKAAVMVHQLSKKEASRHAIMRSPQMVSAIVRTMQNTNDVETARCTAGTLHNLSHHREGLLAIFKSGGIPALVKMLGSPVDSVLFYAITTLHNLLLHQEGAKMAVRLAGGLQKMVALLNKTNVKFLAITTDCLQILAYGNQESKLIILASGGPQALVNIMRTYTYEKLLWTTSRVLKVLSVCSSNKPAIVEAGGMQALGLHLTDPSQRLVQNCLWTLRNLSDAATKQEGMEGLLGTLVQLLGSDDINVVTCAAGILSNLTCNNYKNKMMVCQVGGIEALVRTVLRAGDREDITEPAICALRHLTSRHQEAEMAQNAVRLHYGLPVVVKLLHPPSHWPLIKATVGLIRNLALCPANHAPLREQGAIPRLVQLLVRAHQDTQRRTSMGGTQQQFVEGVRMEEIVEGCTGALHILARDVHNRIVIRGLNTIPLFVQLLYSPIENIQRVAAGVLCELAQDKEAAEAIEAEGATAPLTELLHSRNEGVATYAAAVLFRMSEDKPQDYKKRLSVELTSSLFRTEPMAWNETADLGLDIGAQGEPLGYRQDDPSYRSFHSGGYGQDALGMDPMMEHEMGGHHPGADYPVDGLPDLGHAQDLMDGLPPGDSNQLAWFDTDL
- protocol_notes: Competition fluorescence polarization assay (Axin site probe)
- Type: binding
- experimental_setup: competition fluorescence polarization, Table 2; read-out: in vitro FP EC50
pEC50: −log10 of the molar value.

compound	pEC50
CC[C@H](C)[C@@H]1NC(=O)[C@H](Cc2cccnc2)NC(=O)[C@H](C)NC(=O)[C@H](CC(=O)O)NC(=O)[C@H](CC(C)C)NC(=O)[C@H]([C@@H](C)CC)NC(=O)[C@](C)(NC(=O)[C@H](C)NC(C)=O)CCCCCCC=CCOC(=O)N2CC[C@@](C(=O)N[C@@H](CCCNC(=N)N)C(=O)N[C@H](C(=O)N[C@@H](Cc3c[nH]c4ccccc34)C(N)=O)C(C)C)(C2)NC1=O [FP0537c, Ac-A-R8-I-L-D-A-3pyr-I-MB-R-V-W-NH2]	< 5.30
CC[C@H](C)[C@@H]1NC(=O)[C@H](Cc2c[nH]cn2)NC(=O)[C@H](C)NC(=O)[C@H](CC(=O)O)NC(=O)[C@H](CC(C)C)NC(=O)[C@H]([C@@H](C)CC)NC(=O)[C@](C)(NC(=O)[C@H](C)NC(=O)CCN)CCCCCCC=CCOC(=O)N2CC[C@@](C(=O)N[C@@H](CCCNC(=N)N)C(=O)N[C@H](C(=O)N[C@@H](Cc3c[nH]c4ccccc34)C(N)=O)C(C)C)(C2)NC1=O [FP0217c_bAfree, bA-A-R8-I-L-D-A-H-I-MB-R-V-W-NH2]	> 7.00
CC[C@H](C)[C@@H]1NC(=O)[C@H](Cc2ccccn2)NC(=O)[C@H](C)NC(=O)[C@H](CC(=O)O)NC(=O)[C@H](CC(C)C)NC(=O)[C@H]([C@@H](C)CC)NC(=O)[C@](C)(NC(=O)[C@H](C)NC(C)=O)CCCCCCC=CCOC(=O)N2CC[C@@](C(=O)N[C@H](C(=O)N[C@H](C(=O)N[C@@H](Cc3c[nH]c4ccccc34)C(N)=O)C(C)C)C(C)C)(C2)NC1=O (single isomer, unassigned) [FP0562c Isomer 2, Ac-A-R8-I-L-D-A-2pyr-I-MB-V-V-W-NH2]	< 5.30
CC[C@H](C)[C@@H]1NC(=O)[C@H](Cc2c[nH]cn2)NC(=O)[C@H](C)NC(=O)[C@H](CC(=O)O)NC(=O)[C@H](CC(C)C)NC(=O)[C@H]([C@@H](C)CC)NC(=O)[C@](C)(NC(=O)[C@H](C)NC(C)=O)CCCCCCC=CCOC(=O)N2CC[C@@](C(=O)N[C@@H](CCCNC(=N)N)C(=O)N[C@@](C)(CC(C)C)C(=O)N[C@@H](Cc3c[nH]c4ccccc34)C(N)=O)(C2)NC1=O [FP0633c, Ac-A-R8-I-L-D-A-H-I-MB-R-aMeL-W-NH2]	5.30 to 6.30
CC[C@H](C)[C@@H]1NC(=O)[C@@](C)(NC(=O)[C@H](CCC(N)=O)NC(=O)[C@@H]2CCCN2C(C)=O)CCCC=CCCC[C@@](C)(C(=O)N[C@@H](Cc2c[nH]cn2)C(=O)N[C@H](C(=O)N[C@@H](CCCNC(=N)N)C(=O)N[C@@H](CCCNC(=N)N)C(=O)N[C@H](C(=O)N[C@@H](Cc2c[nH]c3ccccc23)C(=O)N[C@@H](CCCNC(=N)N)C(N)=O)C(C)C)C(C)C)NC(=O)[C@H](CC(=O)O)NC(=O)[C@H](CC(C)C)NC1=O [FP0787s, Ac-P-Q-S5-I-L-D-S5-H-V-R-R-V-W-R-NH2]	6.30 to 7.00

====

- study_target: full-length beta-catenin (Axin site) (Homo sapiens)
- Construct: 15 nM full-length beta-catenin, 20 nM FITC labeled peptide in buffer
- protocol_notes: Competition fluorescence polarization assay (Axin site probe)
- Format: binding
- experimental_setup: competition fluorescence polarization, Table 2; read-out: in vitro FP EC50
Numbered stars: 1 amine (or outer) side, 2 acyl side, 3 side chain; on linkers, the order of the positions; unused ones are H or OH. Bridge positions count the residues as written; N and C are the ends. Square brackets hold non-standard residues; d marks the D form. Peptide text beside a SMILES is read from it. dαMeOrn(Me) = CN(CCC[C@@](C)(N[*:1])C(=O)[*:2])[*:3]; αMeDab(Me) = CN(CC[C@](C)(N[*:1])C(=O)[*:2])[*:3]; X2 = O=C(OCC=CCOC(=O)[*:2])[*:1]
assay_readout: EC50

molecule	assay_readout	meas_value
CC[C@H](C)[C@@H]1NC(=O)[C@](C)(NC(=O)[C@H](CCC(N)=O)NC(=O)[C@@H]2CCCN2C(C)=O)CCCCCC=CCN2CC[C@](C(=O)N[C@@H](Cc3c[nH]cn3)C(=O)N[C@H](C(=O)N[C@@H](CCCNC(=N)N)C(=O)N[C@@H](CCCNC(=N)N)C(=O)N[C@H](C(=O)N[C@@H](Cc3c[nH]c4ccccc34)C(=O)N[C@@H](CCCNC(=N)N)C(N)=O)C(C)C)C(C)C)(C2)NC(=O)[C@H](CC(=O)O)NC(=O)[C@H](CC(C)C)NC1=O (single isomer, unassigned) [FP0768a, Ac-P-Q-R7-I-L-D-MC-H-V-R-R-V-W-R-NH2]	EC50	> 5 µM
CC[C@H](C)[C@@H]1NC(=O)[C@H](Cc2c[nH]cn2)NC(=O)[C@H](C)NC(=O)[C@H](CC(=O)O)NC(=O)[C@H](CC(C)C)NC(=O)[C@H]([C@@H](C)CC)NC(=O)[C@](C)(NC(=O)[C@H](C)NC(C)=O)CCCN(C)C(=O)OCC=CCOC(=O)N(C)CC[C@@](C)(C(=O)N[C@@H](CCCNC(=N)N)C(=O)N[C@H](C(=O)N[C@@H](Cc2c[nH]c3ccccc23)C(N)=O)C(C)C)NC1=O [FP0587c, Ac-A-MI-I-L-D-A-H-I-MF-R-V-W-NH2] (Ac-A[dαMeOrn(Me)]ILDAHI[αMeDab(Me)]RVW-NH2; linker 2-9 via X2)	EC50	< 0.1 µM
